As shown below, each of these binders has a reported glycan array binding signal (z-score) value.
target: Neu5Ac(a2-3)[Neu5Ac(a2-6)]GalNAc; assay: glycan array binding signal (z-score within array); higher = stronger binding; details: glycan notation: IUPAC condensed, linker removed
Many of the other results were omitted from the sample, so the strongest signals are more common in it than they were.

BINDER	glycan array binding signal (z-score)
CD34 (Homo sapiens), P28906 (protein) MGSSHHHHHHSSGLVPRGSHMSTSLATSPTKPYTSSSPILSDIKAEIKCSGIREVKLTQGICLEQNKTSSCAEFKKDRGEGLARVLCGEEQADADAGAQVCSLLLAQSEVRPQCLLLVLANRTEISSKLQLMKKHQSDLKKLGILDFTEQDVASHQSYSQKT	-0.204
Si Bti9 1b-V5-his (Solanum lycopersicum) (protein) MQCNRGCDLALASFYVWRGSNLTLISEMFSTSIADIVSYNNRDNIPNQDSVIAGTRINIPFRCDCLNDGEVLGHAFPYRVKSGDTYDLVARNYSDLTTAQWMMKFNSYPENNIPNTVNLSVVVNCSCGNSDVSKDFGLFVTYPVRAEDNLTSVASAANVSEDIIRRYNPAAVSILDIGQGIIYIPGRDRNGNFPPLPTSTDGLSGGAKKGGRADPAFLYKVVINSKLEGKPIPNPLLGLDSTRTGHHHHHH	-0.269
Gal 3 (Canis lupus) (protein) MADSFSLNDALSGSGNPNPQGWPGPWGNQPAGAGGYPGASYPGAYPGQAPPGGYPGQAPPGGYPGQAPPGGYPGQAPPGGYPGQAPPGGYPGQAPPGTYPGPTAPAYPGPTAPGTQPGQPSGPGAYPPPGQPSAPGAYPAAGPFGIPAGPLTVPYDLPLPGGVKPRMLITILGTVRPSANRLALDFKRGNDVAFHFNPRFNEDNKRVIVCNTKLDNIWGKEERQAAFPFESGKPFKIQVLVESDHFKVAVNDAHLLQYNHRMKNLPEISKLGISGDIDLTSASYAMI	-0.261
Hip/Pap (Homo sapiens), Q06141 (protein) MLPPMALPSVSWMLLSCLMLLSQVQGEEPQRELPSARIRCPKGSKAYGSHCYALFLSPKSWTDADLACQKRPSGNLVSVLSGAEGSFVSSLVKSIGNSYSYVWIGLHDPTQGTEPNGEGWEWSSSDVMNYFAWERNPSTISSPGHCASLSRSTAFLRWKDYNCNVRLPYVCKFTD	-0.168
Gal 1 (Mus musculus), P16045 (protein) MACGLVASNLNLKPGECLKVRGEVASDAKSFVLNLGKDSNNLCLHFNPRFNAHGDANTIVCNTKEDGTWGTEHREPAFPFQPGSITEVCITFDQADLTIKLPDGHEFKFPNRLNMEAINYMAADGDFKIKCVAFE	-0.3
S100A12 (Homo sapiens), P80511 (protein) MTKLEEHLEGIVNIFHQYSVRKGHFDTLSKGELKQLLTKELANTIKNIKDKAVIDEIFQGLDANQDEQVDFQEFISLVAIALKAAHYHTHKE	0.727
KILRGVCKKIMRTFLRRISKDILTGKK [NK2 (Sus scrofa)]	0.24
TIM-1 (Mus musculus), AAL35774 (protein) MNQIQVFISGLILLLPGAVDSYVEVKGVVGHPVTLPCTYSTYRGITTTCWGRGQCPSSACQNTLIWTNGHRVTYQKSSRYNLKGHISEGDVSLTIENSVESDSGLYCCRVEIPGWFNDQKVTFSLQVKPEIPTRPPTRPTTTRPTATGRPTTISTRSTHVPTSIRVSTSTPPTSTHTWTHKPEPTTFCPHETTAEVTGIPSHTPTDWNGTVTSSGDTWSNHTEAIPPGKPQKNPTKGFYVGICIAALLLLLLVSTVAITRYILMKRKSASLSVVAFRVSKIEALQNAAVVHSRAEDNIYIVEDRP	0.386
AAL (Aleuria aurantia), P18891 (protein) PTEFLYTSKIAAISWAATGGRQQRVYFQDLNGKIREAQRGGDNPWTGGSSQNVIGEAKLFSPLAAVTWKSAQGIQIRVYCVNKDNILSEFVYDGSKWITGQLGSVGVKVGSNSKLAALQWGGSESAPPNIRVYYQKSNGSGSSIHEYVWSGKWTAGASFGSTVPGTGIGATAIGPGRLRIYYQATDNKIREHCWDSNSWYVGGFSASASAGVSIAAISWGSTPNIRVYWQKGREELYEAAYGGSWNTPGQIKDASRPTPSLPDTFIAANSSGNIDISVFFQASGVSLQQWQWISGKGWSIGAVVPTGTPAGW	-0.551
Tim-4 (Mus musculus), Q6U7R4 (protein) MSKGLLLLWLVTELWWLYLTPAASEDTIIGFLGQPVTLPCHYLSWSQSRNSMCWGKGSCPNSKCNAELLRTDGTRIISRKSTKYTLLGKVQFGEVSLTISNTNRGDSGVYCCRIEVPGWFNDVKKNVRLELRRATTTKKPTTTTRPTTTPYVTTTTPELLPTTVMTTSVLPTTTPPQTLATTAFSTAVTTCPSTTPGSFSQETTKGSAFTTESETLPASNHSQRSMMTISTDIAVLRPTGSNPGILPSTSQLTTQKTTLTTSESLQKTTKSHQINSRQTILIIACCVGFVLMVLLFLAFLLRGKVTGANCLQRHKRPDNTEDSDSVLNDMSHGRDDEDGIFTL	-0.437
XTP3-B-MRH1 (Homo sapiens), Q96DZ1 (protein) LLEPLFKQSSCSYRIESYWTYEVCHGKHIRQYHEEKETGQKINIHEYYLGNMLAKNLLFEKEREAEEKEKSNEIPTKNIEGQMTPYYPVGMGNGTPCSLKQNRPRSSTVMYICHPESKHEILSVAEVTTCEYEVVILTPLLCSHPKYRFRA	0.205
